target: MMP 13 (Homo sapiens, UniProt P45452); experiment: MMP 13 inhibition (IC50 / manual assay; method not described); assay type: biochemical; details: read-out: MMP 13 % inhibition at 1 micromolar
measurement.name: inhibition at 1 µM
Respond with the figure and its unit, in that order.

Some compounds with recorded inhibition at 1 µM:
[[record]]
compound = "CCCCCCC(Sc1ccc(OC)cc1)C(=O)NO (stereo not shown)"
data_value = "14.3%"

[[record]]
compound = "Cc1occc1S(=O)(=O)C(C)(Cc1ccccc1)C(=O)NO (stereo not shown)"
data_value = "55.5%"

[[record]]
compound = "CCCCCCC(Sc1ccc(F)cc1)C(=O)NO (stereo not shown)"
data_value = "5.8%"


Each of the following entries comes with a recorded value; kindly state inhibition at 1 µM for each.
1. CCCCCCC(Sc1nccn1C)C(=O)NO (stereo not shown)
2. Cc1occc1S(=O)(=O)C(C)(Cc1ccc(OCCN2CCCCC2)cc1)C(=O)NO (stereo not shown)

["26.6%", "39.5%"]

This collection of values is drawn from patent EP0970046B1.
